Test system: NCI-H196 complex spheroids with HUVEC/MSC, growth % T/C
assay procedure: Anticancer human tumor NCI-H196 cell line growth inhibition [Asc];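 note: spheroids exposed to compound for 7 days before measurement; 100% = DMSO vehicle control wells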
run parameters: second compound 0.949 µM; first compound 0.01 µM; active compounds read low
# viability, T/C values compiled below
State the answer as a number, implicitly in %.

Some compounds with recorded viability, T/C:
[[record]]
compound = "NC1CCC(NC2CC2c2ccccc2)CC1 (stereo unspecified) + CCN1C(C(=O)NC23CCC(C(=O)O)(CC2)CC3)C(c2cccc(Cl)c2F)C2(C(=O)Nc3cc(Cl)ccc32)C12CCCCC2"
property_measured = "viability, T/C"
value_units = "%"
obs_value = 114

[[record]]
compound = "O=C(c1ccc(F)c(F)c1Nc1ccc(I)cc1F)N1CC(O)([C@@H]2CCCCN2)C1 + CCN1C(C(=O)NC23CCC(C(=O)O)(CC2)CC3)C(c2cccc(Cl)c2F)C2(C(=O)Nc3cc(Cl)ccc32)C12CCCCC2"
property_measured = "viability, T/C"
value_units = "%"
obs_value = 120

[[record]]
compound = "CNC(C)C(=O)NC1CN(S(=O)(=O)c2cccc(S(=O)(=O)N3CCC4CCC(C(=O)NC(c5ccccc5)c5ccccc5)N4C(=O)C(NC(=O)C(C)NC)C3)c2)CCC2CCC(C(=O)NC(c3ccccc3)c3ccccc3)N2C1=O (stereo unspecified) + CCN1C(C(=O)NC23CCC(C(=O)O)(CC2)CC3)C(c2cccc(Cl)c2F)C2(C(=O)Nc3cc(Cl)ccc32)C12CCCCC2"
property_measured = "viability, T/C"
value_units = "%"
obs_value = 18.4


Which measured viability, T/C belongs to CCN1CCN(Cc2ccc(Nc3ncc(F)c(-c4cc(F)c5nc(C)n(C(C)C)c5c4)n3)nc2)CC1 + CCN1C(C(=O)NC23CCC(C(=O)O)(CC2)CC3)C(c2cccc(Cl)c2F)C2(C(=O)Nc3cc(Cl)ccc32)C12CCCCC2 , tested on NCI-H196 complex spheroids with HUVEC/MSC, growth % T/C?
111

Checklist item: viability, T/C tested on NCI-H196 complex spheroids with HUVEC/MSC, growth % T/C, entry Cn1ncnc1[C@H]1c2n[nH]c(=O)c3cc(F)cc(c23)N[C@@H]1c1ccc(F)cc1 + CCN1C(C(=O)NC23CCC(C(=O)O)(CC2)CC3)C(c2cccc(Cl)c2F)C2(C(=O)Nc3cc(Cl)ccc32)C12CCCCC2 , value?
118

// fetch NCI-H196 complex spheroids with HUVEC/MSC, growth % T/C viability, T/C for COc1c(OCCCN2CCOCC2)ccc2c3n(c(=NC(=O)c4cnc(N)nc4)nc12)CCN3 + CCN1C(C(=O)NC23CCC(C(=O)O)(CC2)CC3)C(c2cccc(Cl)c2F)C2(C(=O)Nc3cc(Cl)ccc32)C12CCCCC2
109
